test: Confirmatory qHTS for Identification of Small Molecule Inhibitors of Huntingtin Promoter Activity; details: HEK293 HTT promoter firefly luciferase reporter, 24 h; series mostly up to 57.5 µM; also: nearly all actives have a fitted effect of over 65% in size
Results filed as inconclusive are left out. Calls of active or inactive are those of the source. Calls follow the shape of the dose curve; as a rule, active = well fitted inhibition curve with a large enough effect; inconclusive = small, poorly fitted or top-dose-only effect; inactive = no such curve, though single readings can be large or run the other way.
Would you mind answering with one of these outcomes? active, inactive

compound=CCCCc1nc2cc(C=CC(=O)NO)ccc2n1CCN(CC)CC discrete_label=inactive
compound=CCOC(=O)c1ccc(C#Cc2ccc3c(c2)C(C)(C)CCS3)nc1 discrete_label=inactive
compound=Cc1ccc(S(=O)(=O)n2nc(-c3ccccc3)nc2NCc2ccccc2Cl)cc1 discrete_label=inactive

input: What did the test return for CCOc1ccc(C(=O)N(Cc2cc(OC)c(OC)c(OC)c2)c2ccccn2)cc1 ?
output: inactive

input: Follow-up item: Cc1ccccc1C(=O)Nc1nc(-c2ccc(Br)cc2)ns1
output: inactive

input: Repeat for the following compound: COc1cc(OC)cc(C(=O)Nc2c(C(=O)Nc3ccc(F)cc3)oc3ccccc23)c1
output: inactive

input: Similarly, CCN(Cc1ccccc1)C(=O)c1cc(-c2ccccc2)n[nH]1 ?
output: inactive

input: Another compound to check: CCc1nc2ccc(C(=O)NCCc3ccc(OC)cc3OC)cc2nc1CC
output: inactive

input: Param item: Cc1cccc(C2C=C(c3ccc(F)cc3)Nc3nc4ccccc4n32)c1 (stereo unspecified)
output: inactive

input: How about COc1ccccc1NC(=O)CN1C(=O)C(C)(C)c2ccccc21 ?
output: inactive

input: Subsequent entry: CC(=O)c1ccc(NS(=O)(=O)c2ccc3[nH]c(=O)[nH]c3c2)cc1
output: inactive

input: Now the same for O=C(Nc1ccc(Cl)c(Cl)c1)N(Cc1c[nH]c2ccccc12)C1CCCCC1
output: inactive

input: Also O=C(c1ccc(CS(=O)c2ccccc2Cl)o1)N1CCN(c2cccc(C(F)(F)F)c2)CC1 (stereo unspecified) ?
output: active

input: Proceed to CSc1ccc(/C=C/c2nc3ccccc3n2S(=O)(=O)c2ccc(F)c(C)c2)cc1
output: inactive

input: Try the compound COC(=O)c1c(C)oc2ccc(N(C(=O)c3ccncc3)S(=O)(=O)c3ccc(OC)cc3)cc12
output: active

input: Record: CN(C)c1ccc(C(=O)NCCCCCCC(=O)NO)cc1
output: inactive

input: Next record, please: COC(=O)C1=C(C)NC(C)=C(C(=O)OCC(C)=O)C1c1ccccc1[N+](=O)[O-] (stereo unspecified)
output: inactive

input: Then what about the compound O=C(CSc1nccn1Cc1ccco1)Nc1cc(C(F)(F)F)ccc1Cl ?
output: inactive

input: What about Cc1ccc(S(=O)(=O)Nc2cccc(-c3ccc(N4CCCCC4)nn3)c2)s1 ?
output: inactive

input: What would you report for O=c1cc(-c2ccccc2)oc2cc(O)cc(O)c12 ?
output: inactive

input: // same read-out, input: Cc1ccc(C)c(N2CCN(C(=O)c3nn(C)c4c3CS(=O)(=O)c3ccccc3-4)CC2)c1
output: active

====

assay: Confirmatory qHTS for Identification of Small Molecule Inhibitors of Huntingtin Promoter Activity; details: HEK293 HTT promoter firefly luciferase reporter, 24 h; series mostly up to 57.5 µM; also: nearly all actives have a fitted effect of over 65% in size
Inconclusive results are not listed. The source made the active and inactive calls. Calls follow the shape of the dose curve; as a rule, active = well fitted inhibition curve with a large enough effect; inconclusive = small, poorly fitted or top-dose-only effect; inactive = no such curve, though single readings can be large or run the other way.
Can you answer with just one of these options? Yes (active), No (inactive)

compound=CCc1ccccc1-n1c(SCC(=O)Nc2ccc(C)cc2)nc2n[nH]c(C)c2c1=N discrete_label=Yes
compound=CCN(CC)CCNC(=O)c1c(C)[nH]c(C=C2C(=O)Nc3ccc(F)cc32)c1C discrete_label=No

input: How was O=C(Nc1cccc(C(=O)N2CCN(c3ccc(Cl)cc3)CC2)c1)c1nsc2ccccc12 classified in this test?
output: No

input: Ok, now Cc1cccc(N2CCN(C(=O)c3ccc(NC(=O)c4nsc5ccccc45)cc3)CC2C)c1 (stereo not given)
output: No

input: How about Cn1c(=O)n(C)c2cc(NS(=O)(=O)c3ccc(F)cc3)ccc21 ?
output: No

input: Next: COc1ccc(-c2nc(N3CCOCC3)c3sc(CN(C)c4ncc(C(=O)NO)cn4)cc3n2)cn1
output: No

input: Further, for COc1cccc(N2CCN(C(=O)c3cccc(-n4c(C)nc5cccnc54)c3)CC2)c1 ?
output: Yes

input: Proceed to COc1ccc(C(=O)Nc2cccc(-c3cn4ccsc4n3)c2)c(OC)c1
output: No
